# target.of.assay: KRas-mediated phosphorylation of ERK in A549 cells (Homo sapiens, UniProt P01116, G12S)
# Construct: pERK HTRF read-out
# Sequence (P01116 1-188 isoform P01116-2 G12S): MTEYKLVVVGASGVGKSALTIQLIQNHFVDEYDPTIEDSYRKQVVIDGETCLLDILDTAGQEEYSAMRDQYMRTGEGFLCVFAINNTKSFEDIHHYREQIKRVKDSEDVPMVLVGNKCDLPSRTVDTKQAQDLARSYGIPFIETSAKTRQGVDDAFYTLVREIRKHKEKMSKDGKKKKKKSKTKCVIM
# test.method.notes: Inhibition of KRas-mediated phosphorylation of ERK (HTRF), A549 cells
# Type: cell-based
# stated.conditions: HTRF pERK, 3 h incubation
For each entry below, report its IC50 value.
A number alone suffices; assume nM.

Q. Give its IC50 value. Item: CCc1c(F)ccc2cc(O)cc(-c3ncc4c(N(C)CCN(C)C(=O)n5ccnn5)nc(OC[C@@]56CCCN5C[C@H](F)C6)nc4c3F)c12 (single isomer, unassigned)
A. 3980

Q. Give its IC50 value. Item: `CN(CCCC(=O)N(C)c1ccncn1)c1nc(OC[C@@]23CCCN2C[C@H](F)C3)nc2c(F)c(-c3ccc(F)c4sc(N)c(C#N)c34)c(Cl)cc12`
A. 266

Q. Give its IC50 value. Item: CCc1c(F)ccc2cc(O)cc(-c3ncc4c(N5C[C@H]6CC(C(=O)n7ccc(C)n7)C[C@H]6C5)nc(OC[C@@]56CCCN5C[C@H](F)C6)nc4c3F)c12 (stereo partly drawn)
A. 35

---

# target.of.assay: KRas-mediated phosphorylation of ERK in MKN1 cells (Homo sapiens, UniProt P01116)
# Construct: pERK HTRF read-out
# Sequence (P01116 1-188 isoform P01116-2): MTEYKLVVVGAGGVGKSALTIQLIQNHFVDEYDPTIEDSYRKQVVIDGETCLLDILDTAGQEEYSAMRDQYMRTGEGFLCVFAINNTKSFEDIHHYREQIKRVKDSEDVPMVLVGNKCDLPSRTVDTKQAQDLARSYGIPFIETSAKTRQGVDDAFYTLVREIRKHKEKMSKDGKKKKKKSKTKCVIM
# test.method.notes: Inhibition of KRas-mediated phosphorylation of ERK (HTRF), MKN1 cells
# Assay type: cell-based
# stated.conditions: MKN1 cells (KRas WT); HTRF pERK; 3 h incubation
Binarize IC50 at 400 nM; below is Y, at or above is N.

Q. Consider the compound `Cc1ccn(C(=O)CCNc2cc(-c3noc4c3CCC[C@@]43CCCc4sc(N)c(C#N)c43)nc(N3CCNC[C@@H]3C)n2)n1` . Is its IC50 strictly less than 400 nM?
A. N

Q. Consider the compound CC(=O)N(C)C(=O)CCCN(C)c1nc(OC[C@@]23CCCN2C[C@H](F)C3)nc2c(F)c(-c3ccc(F)c4sc(N)c(C#N)c34)c(Cl)cc12 (atropisomer, axis not shown; (aS)) [Example 260] . Is its IC50 strictly less than 400 nM?
A. Y

Q. Consider the compound CCc1c(F)ccc2cc(O)cc(-c3ncc4c(N5CCCCC(C(=O)n6ccc(C)n6)CC5)nc(OC[C@@]56CCCN5C[C@H](F)C6)nc4c3F)c12 (some centres unmarked) . Is its IC50 strictly less than 400 nM?
A. Y

Q. Consider the compound `CN(CCCC(=O)Nc1cccnc1)c1nc(OC[C@@]23CCCN2C[C@H](F)C3)nc2c(F)c(-c3ccc(F)c4sc(N)c(C#N)c34)c(Cl)cc12` . Is its IC50 strictly less than 400 nM?
A. Y

Q. Consider the compound CCc1c(F)ccc2cc(O)cc(-c3ncc4c(N5CC6C(CC(=O)n7ccc(C)n7)C6C5)nc(OC[C@@]56CCCN5C[C@H](F)C6)nc4c3F)c12 (some centres unmarked) . Is its IC50 strictly less than 400 nM?
A. N

Q. Consider the compound CCc1c(F)ccc2cc(O)cc(N3CCc4c(nc(OC[C@@]56CCCN5C[C@H](F)C6)nc4N4CCCCCC(C(=O)n5ccc(C)n5)C4)C3)c12 (some centres unmarked) . Is its IC50 strictly less than 400 nM?
A. Y

Q. Consider the compound `CCc1c(F)ccc2cc(O)cc(-c3ncc4c(NCCCC(=O)n5ccc(C)n5)nc(OC[C@@]56CCCN5C[C@H](F)C6)nc4c3F)c12` . Is its IC50 strictly less than 400 nM?
A. Y

Q. Consider the compound `CCc1c(F)ccc2cc(O)cc(-c3ncc4c(N5C[C@@H]6C[C@H](C(=O)n7ccc(C)n7)[C@@H]6C5)nc(OC[C@@]56CCCN5C[C@H](F)C6)nc4c3F)c12` . Is its IC50 strictly less than 400 nM?
A. N

Q. Consider the compound `CCc1c(F)ccc2cc(O)cc(N3CCc4c(nc(OC[C@@]56CCCN5C[C@H](F)C6)nc4N(C)CCC(=O)n4ccc(C)n4)C3)c12` . Is its IC50 strictly less than 400 nM?
A. N

Q. Consider the compound `COC(=O)CCCN(C)c1nc(OC[C@@]23CCCN2C[C@H](F)C3)nc2c(F)c(-c3ccc(F)c4sc(N)c(C#N)c34)c(Cl)cc12` . Is its IC50 strictly less than 400 nM?
A. N

Q. Consider the compound `CN(CCCC(=O)N(C)c1ccncc1)c1nc(OC[C@@]23CCCN2C[C@H](F)C3)nc2c(F)c(-c3ccc(F)c4sc(N)c(C#N)c34)c(Cl)cc12` . Is its IC50 strictly less than 400 nM?
A. Y
